Ref: patent US12116358B2

Target: SETD2(1434-1711) (Homo sapiens, UniProt Q9BYW2)
Construct: SETD2 (1434-1711) Assay; catalogue N/A
Sequence (Q9BYW2 1434-1711): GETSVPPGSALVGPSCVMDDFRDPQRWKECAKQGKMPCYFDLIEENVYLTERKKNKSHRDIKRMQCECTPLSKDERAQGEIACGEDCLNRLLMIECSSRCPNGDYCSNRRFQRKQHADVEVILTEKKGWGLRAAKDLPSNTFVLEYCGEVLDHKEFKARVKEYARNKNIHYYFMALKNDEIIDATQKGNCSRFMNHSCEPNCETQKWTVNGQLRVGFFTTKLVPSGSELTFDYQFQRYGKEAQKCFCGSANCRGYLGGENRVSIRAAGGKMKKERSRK
Test: SETD2 (1434-1711) assay
Type: biochemical
Details: read-out: SETD2 (1434-1711)
test-readout: pIC50
Lab note: report pIC50 as minus log10 of the concentration in molar units, number only.

Some compounds with recorded pIC50:
• CC(=O)N1CCN(c2cccc(NC(=O)c3cc4c(F)ccc(C)c4[nH]3)c2)CC1CC(C)C (stereo not shown) [compound 193] = 7.00
• Cc1ccc(F)c2cc(C(=O)N[C@@H]3CCC[C@@H](N4CCN(C5CCOC5)CC4)C3)[nH]c12 (stereo partly shown) [compound 925] = 5.06
• CC(=O)N1CCC2(CCN(c3cc(F)cc(NC(=O)c4cc5c(F)ccc(C)c5[nH]4)c3)CC2)C1 [compound 30] = 8.10

Name the recorded pIC50 of Cc1cccnc1C(CCC(=O)N1CCOCC1)NC(=O)c1cc2cccc(C)c2[nH]1 (stereo not shown) [compound 420] , assay system SETD2(1434-1711) (Homo sapiens, UniProt Q9BYW2).
5.62

Name the recorded pIC50 of CC(=O)N1CCN(c2cccc(NC(=O)c3cc4c(F)ccc(Br)c4[nH]3)c2)CC1 [compound 84] , assay system SETD2(1434-1711) (Homo sapiens, UniProt Q9BYW2).
7.40

Name the recorded pIC50 of Cc1cccc2cc(C(=O)Nc3ccccn3)[nH]c12 [compound 673] , assay system SETD2(1434-1711) (Homo sapiens, UniProt Q9BYW2).
4.44

Name the recorded pIC50 of Cc1ccc(F)c2cc(C(=O)NC3CCCC(N4CCN5C(=O)OCC5C4)C3)[nH]c12 (stereo not shown) [compound 865] , assay system SETD2(1434-1711) (Homo sapiens, UniProt Q9BYW2).
7.52

Name the recorded pIC50 of Cc1ccc(F)c2cc(C(=O)N[C@H]3CCC[C@@H](C4=NNC(=O)CN4)C3)[nH]c12 [compound 1188] , assay system SETD2(1434-1711) (Homo sapiens, UniProt Q9BYW2).
6.70

Name the recorded pIC50 of Cc1ccc(F)c2cc(C(=O)Nc3cccc(CC4CCCN(C)C4)c3)[nH]c12 (stereo not shown) [compound 352] , assay system SETD2(1434-1711) (Homo sapiens, UniProt Q9BYW2).
7.00

Name the recorded pIC50 of Cc1ccc(F)c2cc(C(=O)NC3CCCC(N4CCN(C(=O)CO)C(C(F)(F)F)C4)C3)[nH]c12 (stereo not shown) [compound 1174] , assay system SETD2(1434-1711) (Homo sapiens, UniProt Q9BYW2).
5.32

Name the recorded pIC50 of CC(=O)N1[C@@H](C)CN(c2cccc(NC(=O)c3cc4c(F)ccc(C)c4[nH]3)c2)C[C@@H]1C [compound 298] , assay system SETD2(1434-1711) (Homo sapiens, UniProt Q9BYW2).
6.52

Name the recorded pIC50 of Cc1cccnc1C(CCC(=O)NC1CCC(N)CC1)NC(=O)c1cc2cccc(C)c2[nH]1 (stereo not shown) [compound 579] , assay system SETD2(1434-1711) (Homo sapiens, UniProt Q9BYW2).
4.64

Name the recorded pIC50 of COc1cccc(C(O)CNC(=O)c2cc3cccc(C)c3[nH]2)c1 (stereo not shown) [compound 695] , assay system SETD2(1434-1711) (Homo sapiens, UniProt Q9BYW2).
4.21
